- Experiment description: Toxicity liver stage against HepG2, at 10uM
- Format: cell-based
- Parameters: test concentration 10 uM, cell line HepG2-A16-CD81EGFP
- Reported conditions: human, HepG2-A16-CD81EGFP cells; read-out: INHIBITION
Quantity: cytotoxicity at 10 µM (%)
Numbers only, in %.

Please review the entries below; each comes with its answer.
- c1ccc(C(NCc2nnc(-c3ccco3)o2)C2CCC2)cc1 (configuration not stated): -48.7
- Cn1cc(C(=O)NC[C@H]2OC[C@@H]3CCN(C4CCOCC4)C[C@@H]32)cn1: 8.01
- O=C1CCc2cc(NC(=O)N3CCCN(Cc4cccs4)CC3)ccc21: -11.1
- Cc1ccc(CN2CCC3(CC2)C(=O)NCCN3CC2CC2)o1: -66.8

Record cytotoxicity at 10 µM per entry; entries follow.
1. Cc1nn(CCC#N)c(C)c1CCC(=O)N(C(C)C)C1CC1
2. CC(O)CN1CCN(C(=O)c2ccc(CN(C)C)cc2)CC1 (configuration not stated)
3. O=C(O)[C@@H]1CN(C(=O)c2ccc3[nH]nnc3c2)C[C@H]1c1ccccc1
4. Cc1ccc(OC2(C(=O)NC(C)Cc3ccsc3)CCNCC2)cc1 (configuration not stated)
5. Cc1ccccc1CC(=O)NCc1cnc(CC2CCN(C)CC2)cn1
6. CC(=O)N1CCCC2(C1)CN(C(=O)Cc1ccccc1)CCO2 (configuration not stated)
7. O=C(c1ccc(C2CCCO2)s1)N1CCN(c2ccccc2F)CC1 (configuration not stated)

[-2.72, -8.09, -130, -15.4, -1.25, -83.9, -15.1]

Record cytotoxicity at 10 µM per entry; entries follow.
1. Cc1cc(C)nc(N2CCOC(c3cc(CCO)[nH]n3)C2)n1 (configuration not stated)
2. CCC(NCCn1cc(C)cn1)C(=O)Nc1cc(C)on1 (configuration not stated)
3. CCC(=O)NC1CCCN(Cn2nc(C(C)(C)C)ccc2=O)C1 (configuration not stated)
4. Cc1cc(C(=O)N2CCC(CCn3cccn3)CC2)c(C)o1
5. CN(C)C(=O)CO[C@@H]1CC[C@H]2[C@H]1OCCN2C(=O)C1CCOCC1
6. CCCn1cnc2c1CN(C(=O)c1ccc(F)cc1)[C@H](C(=O)OC)C2

[1.89, 4.52, -1.69, -5.27, -7.56, 4.94]

Record cytotoxicity at 10 µM per entry; entries follow.
1. COCC1CC2(CCN(CC3CC3)CC2)CN1c1ncccn1 (configuration not stated)
2. C[C@@H]1CN(CC(C)(C)N2CCOCC2)CC[C@@]1(O)C1CCOCC1
3. CC1CN(S(=O)(=O)c2ccc(F)cc2F)c2cccnc2O1 (configuration not stated)

[14.1, -1.71, 2.02]

----------
- Experiment description: Toxicity liver stage against HepG2, at 10uM
- Type: cell-based
- Parameters: test concentration 10 uM, cell line HepG2-A16-CD81EGFP
- Reported conditions: human, HepG2-A16-CD81EGFP cells; read-out: INHIBITION
Quantity: cytotoxicity at 10 µM (%)
Answers are plain numbers, in %.

- CC(COc1ccccc1)NCc1cn2ccccc2n1 (centres undefined): 16.6

Record cytotoxicity at 10 µM per entry; entries follow.
1. Cc1nn(C)c(N2CCOCC2)c1CNC1CCN(C(C)(C)C)CC1
2. Cc1nc(C)n(C2CCCN(C(=O)c3cscn3)C2)n1 (centres undefined)
3. CN1CCN(C2CCN(c3cnc4ccccc4n3)CC2)C1=O
4. Fc1cnc(N2CCCC3(CCN(Cc4ccsc4)C3)C2)nc1 (centres undefined)
5. CNc1cncc(C2CCCN2Cc2ccn(C)n2)n1 (centres undefined)

1: -3.66; 2: -8.78; 3: 27.4; 4: -2.83; 5: -6.88

Record cytotoxicity at 10 µM per entry; entries follow.
1. O=C(C1CCOCC1)N1CC[C@@](O)(c2ccccc2)[C@H]2CCCC[C@@H]21
2. CO[C@@H]1CCN(C(=O)c2ccccn2)[C@H]1Cc1ccccc1
3. N#Cc1cccc(Cl)c1NC1CCN(CC(N)=O)CC1

-8.35
4.89
-5.87

----------
- Experiment description: Toxicity liver stage against HepG2, at 10uM
- Format: cell-based
- Set-up: test concentration 10 uM, cell line HepG2-A16-CD81EGFP
- Reported conditions: human, HepG2-A16-CD81EGFP cells; read-out: INHIBITION
Quantity: cytotoxicity at 10 µM
Give the number first and the unit second.

- NC(=O)c1cc(C2CCCN(CCCOc3ccc(F)cc3)C2)n[nH]1 (stereo unspecified): -16.4%
- CCOCC(O)CN1CCN(C(=O)Cc2cccc(C)c2)CC1 (stereo unspecified): -7.1%
- Cn1ncc(N2CCC(CNC3CC(c4ccccc4)C3)CC2)cc1=O (stereo unspecified): -2.15%
- O=C(c1ccc[nH]1)N1CCCC2(CCN(c3ccsc3)C2=O)C1 (stereo unspecified): -0.449%
- CCC(=O)N1CC[C@@H](c2ccc3ccccc3c2)[C@H](O)C1: -11.4%

Looking up O=C(Nc1cnn(Cc2ccc(Cl)cc2)c1)N1CCCC1CO (stereo unspecified) , I found its cytotoxicity at 10 µM recorded as -1.13%

----------
- Experiment description: Toxicity liver stage against HepG2, at 10uM
- Assay type: cell-based
- Set-up: test concentration 10 uM, cell line HepG2-A16-CD81EGFP
- Reported conditions: human, HepG2-A16-CD81EGFP cells; read-out: INHIBITION
Quantity: cytotoxicity at 10 µM (%)
One number for each entry, in %.

* OCCN1CCN(Cc2coc(-c3cccc(Cl)c3)n2)CC1 | -21.6

Record cytotoxicity at 10 µM per entry; entries follow.
1. CC(C)NC(=O)NC(C)c1nc(-c2ccccc2)cs1 (configuration not stated)
2. O=C1[C@H]2CN(C(=O)[C@H]3CCCO3)C[C@H]2CN1CC1CC1
3. COC1CCN(CCNc2ncc(Br)cc2C)CC1
4. CC(C)Oc1ncccc1CNC(=O)c1cc(C2CC2)on1
5. Cc1cncc(C(=O)N2CC[C@@H]3[C@H]2CCC(=O)N3CCN(C)C)c1
6. O=C(CCOc1cccc(F)c1)N1CCCC(n2cncn2)C1 (configuration not stated)
7. CCS(=O)(=O)c1ccc(N2CCC(NC(=O)CC3CCCC3)CC2)cc1
8. Cc1nc(NC(=O)C(C)N2CCN(c3cnccn3)CC2)sc1C (configuration not stated)

1. -11.1
2. -6.66
3. -13.9
4. -17.7
5. -4.84
6. -0.192
7. 22.7
8. 4.75

Record cytotoxicity at 10 µM per entry; entries follow.
1. CN1C(=O)CC(C(=O)O)C12CCN(Cc1ccc(F)cc1Cl)CC2 (configuration not stated)
2. CN(C)C(=O)Cn1cc(C(=O)NCCc2cccc(Cl)c2Cl)nn1
3. Fc1ccc(Oc2nccnc2C2CCN(C3CCOCC3)CC2)cc1
4. O=C(c1cccnc1)N1CCOCC2(CCN(c3ncccn3)C2)C1 (configuration not stated)
5. Cc1cc(CN(C)C(=O)NC2CCC(O)CC2)no1 (configuration not stated)
6. Cc1occc(=O)c1OCC(=O)N1CCN(c2ccccc2)CC1

[-4.88, -1.42, -2.5, 8.88, -0.252, -2.88]

Record cytotoxicity at 10 µM per entry; entries follow.
1. CC(NC1CCSCC1)c1ccccc1-n1cccn1 (configuration not stated)
2. CCN1CC(C(=O)NCc2nc(C3CCCCC3)no2)CC1=O (configuration not stated)
3. CCS(=O)(=O)N1CCN(CCn2cccn2)c2nc(C)ccc2C1
4. CNC(=O)C1CN(C(=O)Cc2ccc(OC)cc2)Cc2cn(C)nc21 (configuration not stated)
5. C1CC(c2noc(C3CC3)n2)N(Cc2nnc(C3CC3)o2)C1 (configuration not stated)

-2.24
-3.68
9.88
2.99
-5.83

Record cytotoxicity at 10 µM per entry; entries follow.
1. O=C(NCCN1CCCc2ccccc21)c1scnc1Cl
2. Clc1ccccc1-c1nc(CNC2CCc3ncnn3C2)co1 (configuration not stated)
3. COc1ccc2c(c1)C(=O)N(C)C1(CCN(C(=O)OC(C)(C)C)CC1)N2
4. C[C@@H]1CN(CCC(=O)N(C)Cc2ccccc2)CC[C@@]1(O)C1CCC1
5. COc1ccc(-n2nc(C(C)=O)c(C(C)=O)c2C)cc1Cl
6. CN(C)c1cc(C2CCCN(C(=O)Cn3cc(Cl)cn3)C2)ccn1 (configuration not stated)
7. Cc1ccc(C(=O)N2Cc3ccccc3C2)cc1N1CCNC1=O
8. Fc1ccc(CN2CCCC3(COCCN(Cc4c[nH]nn4)C3)C2)cc1 (configuration not stated)

1: -3.41; 2: -7.6; 3: 25.1; 4: 2.89; 5: -0.145; 6: -23.2; 7: -13.9; 8: 4.9

----------
Exercise: state measured cytotoxicity at 10 µM for each of the molecules provided.
- Experiment description: Toxicity liver stage against HepG2, at 10uM
- Format: cell-based
- Design: test concentration 10 uM, cell line HepG2-A16-CD81EGFP
- Reported conditions: human, HepG2-A16-CD81EGFP cells; read-out: INHIBITION
One number for each entry, in %.

Please review the entries below; each comes with its answer.
• CN(Cc1cccc(F)c1)Cc1nc2c(cnn2C)c(=O)[nH]1 = -2.8
• Cc1ncsc1C(=O)NC1CCN(c2ncccc2C#N)CC1 = 2.68
• CC(C)C(O)C(=O)N1CCC2(CC1)c1nc[nH]c1CCN2S(C)(=O)=O (configuration not stated) = -0.232

Record cytotoxicity at 10 µM per entry; entries follow.
1. CN1CCN(CC2CC2)C(=O)c2cnc(N3CCOCC3)nc21
2. O=C(NC1CCN(C2CC2)CC1)c1[nH]nc(C2CC2)c1Cl
3. COc1ccc(C2SCC(=O)Nc3ccsc32)cc1 (configuration not stated)
4. COc1ccc(CN2CC[C@@H]3[C@H]2CCC(=O)N3c2cnn(C)c2)cc1
5. COc1ccc(C2SCC(=O)Nc3ccsc32)cc1OC (configuration not stated)
6. CNS(=O)(=O)CCCN1CCCCCC1c1ccc(C)o1 (configuration not stated)
7. O=C(NCC1(O)CCCCC1)c1coc(COc2cccc(F)c2)n1
8. O=C(NCCN1CCC(c2cccs2)CC1)c1ccc(F)cc1Cl

1: -10.3; 2: 2.64; 3: 10.5; 4: 17.4; 5: -0.898; 6: -7.58; 7: -136; 8: -2.83

Record cytotoxicity at 10 µM per entry; entries follow.
1. CN(C)C[C@@H]1CN(C(=O)c2cc(S(N)(=O)=O)ccc2F)C[C@@H]1CO
2. Cc1ccccc1N1CC(c2nnc(N)s2)CC1=O (configuration not stated)
3. CC(=O)N(Cc1ncc(C(C)C)o1)C1CCN(CCn2cccn2)C1 (configuration not stated)

1. 4.83
2. -0.411
3. -4.89

Record cytotoxicity at 10 µM per entry; entries follow.
1. CC(=O)NCc1nnc2n1CCN(c1ncnc3c1CCC3)CC2
2. NC(=O)C1(c2cnccn2)CCCN1Cc1ccc(Cl)cc1 (configuration not stated)
3. O=C(Nc1cccnc1)c1nn(C2CCS(=O)(=O)C2)c2c1CCCC2 (configuration not stated)
4. CCOCCCNC(=O)CCCC(=O)n1nc(C)c2ccccc21
5. COCCOc1ccnc(-c2noc([C@@H]3CCCN3CC3CC3)n2)c1

1: 13; 2: -0.085; 3: 7.41; 4: -1.29; 5: -4.55

Record cytotoxicity at 10 µM per entry; entries follow.
1. CCNc1ncc(C(=O)NCc2csc(C)n2)cn1
2. CC(=O)NCc1ccc(S(=O)(=O)NC(=O)c2ccc3c(c2)CCO3)s1
3. O=C(O)CSc1nnc(-c2ccn[nH]2)n1-c1cccc(C(F)(F)F)c1
4. CN(C)CCCN(Cc1ccco1)Cc1ccnn1C1CCCCO1 (configuration not stated)
5. CCNC(=O)N1CCC2(C1)c1ccccc1S(=O)(=O)N2CCC(C)C (configuration not stated)
6. CCc1cnc(NCC(c2cccnc2)N2CCOCC2)nc1 (configuration not stated)

12.5
16.1
0.34
-2.52
-8.25
9.6
